Hello, the source for this data is patent US8426606B2, in case you need it.

test: Cytotoxicity on HepG2.2.15 cells (MTT assay); assay type: cell-based, Human; conditions: human, read-out: CC50 (concentration at which 50% of cells was killed)
Endpoint name: CC50 at 6 days

| Molecule | Measured result |
| --- | --- |
| Nc1ccn([C@@H]2CS[C@H](CO)O2)c(=O)n1 [Lamivudine, reference compound] | > 5 µM |
| COC(c1sc(-c2nccs2)nc1C(=O)NCc1ccc(F)cc1)C(C)C (stereo not drawn) | > 33.3 µM |
| C/C(=C\c1sc(-c2nccs2)nc1C(=O)NCc1ccc(F)cc1)CO | > 100 µM |
| CC(C)=Cc1sc(-c2nccs2)nc1C(=O)NCc1ccc(F)cc1 | > 100 µM |
| Cc1cnc(-c2nc(C(=O)NCc3ccc(F)cc3)c(C(F)C(C)C)s2)s1 (stereo not drawn) | > 100 µM |
| CC(C)C(O)c1sc(-c2nccs2)nc1C(=O)NCc1ccc(F)cc1 (stereo not drawn) | 34 µM |
| Cc1cnc(-c2nc(C(=O)NCc3ccc(F)cc3)c(C(O)C(C)C)s2)s1 (stereo not drawn) | > 33.3 µM |
| C/C(=C\c1sc(-c2nccs2)nc1C(=O)NCc1ccc(F)cc1)CF | > 100 µM |
| CC(C)(F)Cc1sc(-c2nccs2)nc1C(=O)NCc1ccc(F)cc1 | > 33.3 µM |

---

tested on: HCV (J399E); assay: microbe, parasite or virus in culture; assay type: cell-based, Hepatitis C Virus; settings: anti-HCV, Huh7.5.1 cells
Listing of recorded SI (bioactivity selective index) by entry.

| Compound | SI (bioactivity selective index) |
| --- | --- |
| CC(C)=Cc1sc(-c2nccs2)nc1C(=O)NCc1ccc(F)cc1 [Compound 373] | 14.9 |
| NC(=O)c1ncn([C@@H]2O[C@H](CO)[C@@H](O)[C@H]2O)n1 [Ribavirin, ribavirin, reference compound] | >2.8 |
| COC(c1sc(-c2nccs2)nc1C(=O)NCc1ccc(F)cc1)C(C)C (stereo not shown) [Compound 405-1] | 5.8 |
| CC(C)C(O)c1sc(-c2nccs2)nc1C(=O)NCc1ccc(F)cc1 (stereo not shown) [Compound 391-1] | 4.8 |

---

Listing of recorded CC50 at 72 h by entry.
test: in vitro; type: cell-based; details: human
Endpoint name: CC50 at 72 h (µM)

| Compound | Comparison sign | Measured result |
| --- | --- | --- |
| COC(c1sc(-c2nccs2)nc1C(=O)NCc1ccc(F)cc1)C(C)C (stereo not shown) [Compound 405-1] | = | 21.4 |
| CC(C)C(O)c1sc(-c2nccs2)nc1C(=O)NCc1ccc(F)cc1 (stereo not shown) [Compound 391-1] | = | 48.6 |
| CC(CO)Cc1sc(-c2nccs2)nc1C(=O)NCc1ccc(F)cc1 (stereo not shown) [Compound 391-3] | = | 28.1 |
| CC(C)=Cc1sc(-c2nccs2)nc1C(=O)NCc1ccc(F)cc1 [Compound 373] | = | 85 |
| NC(=O)c1ncn([C@@H]2O[C@H](CO)[C@@H](O)[C@H]2O)n1 [Ribavirin, ribavirin, reference compound] | > | 200 |
| CC(C)=Cc1sc(-c2ncc(C)s2)nc1C(=O)NCc1ccc(F)cc1 [Me-373] | = | 66.6 |
| CC(C)C(F)c1sc(-c2nccs2)nc1C(=O)NCc1ccc(F)cc1 (stereo not shown) [Compound 393-1] | = | 40.9 |
| CC(C)(F)Cc1sc(-c2nccs2)nc1C(=O)NCc1ccc(F)cc1 [Compound 393-2] | > | 33.3 |
| C/C(=C\c1sc(-c2nccs2)nc1C(=O)NCc1ccc(F)cc1)CO [Compound 389] | = | 76.5 |
| CC(C)(O)Cc1sc(-c2nccs2)nc1C(=O)NCc1ccc(F)cc1 [Compound 391-2] | = | 134 |
| Cc1cnc(-c2nc(C(=O)NCc3ccc(F)cc3)c(C(O)C(C)C)s2)s1 (stereo not shown) [Me-391-1] | > | 33.3 |
| C/C(=C\c1sc(-c2nccs2)nc1C(=O)NCc1ccc(F)cc1)CF [Compound 391-F] | = | 84.7 |
| Cc1cnc(-c2nc(C(=O)NCc3ccc(F)cc3)c(C(F)C(C)C)s2)s1 (stereo not shown) [Me-393-1] | > | 100 |
